Measured OD 450 nm accompanies every entry in the list below.
system_under_test: T1, human FAPα-His tag (Sino biological) (human, UniProt Q12884 26-760)
T1 construct: Bought protein; also called human FAPα-His protein; not shown: His tag
T1 sequence (looked up): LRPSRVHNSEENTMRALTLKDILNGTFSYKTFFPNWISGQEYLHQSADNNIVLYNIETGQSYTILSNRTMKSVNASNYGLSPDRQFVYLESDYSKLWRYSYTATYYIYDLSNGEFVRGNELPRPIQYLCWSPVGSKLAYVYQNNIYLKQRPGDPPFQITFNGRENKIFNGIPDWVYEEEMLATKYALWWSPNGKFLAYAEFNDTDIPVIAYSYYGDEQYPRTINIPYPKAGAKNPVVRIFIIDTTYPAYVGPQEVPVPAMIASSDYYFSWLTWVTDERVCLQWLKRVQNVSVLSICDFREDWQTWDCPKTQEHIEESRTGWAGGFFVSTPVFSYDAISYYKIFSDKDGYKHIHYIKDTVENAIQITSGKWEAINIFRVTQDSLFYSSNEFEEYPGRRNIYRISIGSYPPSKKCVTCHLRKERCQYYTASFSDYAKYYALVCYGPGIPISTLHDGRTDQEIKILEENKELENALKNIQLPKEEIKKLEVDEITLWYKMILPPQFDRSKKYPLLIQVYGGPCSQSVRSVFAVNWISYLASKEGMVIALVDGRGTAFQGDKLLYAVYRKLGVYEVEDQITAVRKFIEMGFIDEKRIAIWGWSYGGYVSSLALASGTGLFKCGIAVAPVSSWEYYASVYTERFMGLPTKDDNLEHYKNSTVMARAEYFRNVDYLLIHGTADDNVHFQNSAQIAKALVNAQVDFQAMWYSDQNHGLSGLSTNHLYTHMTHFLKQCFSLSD
test_name: competitive ELISA on coated human FAPα; competitor (detected): FAP-I38-Bio
A number alone suffices; assume OD 450 nm.

Here is how some binders turned out for OD 450 nm.
binder	units_symbol	value_observed
I38 (antibody, V domains shown, Tested as a mAb; also called FAP-I38) VH: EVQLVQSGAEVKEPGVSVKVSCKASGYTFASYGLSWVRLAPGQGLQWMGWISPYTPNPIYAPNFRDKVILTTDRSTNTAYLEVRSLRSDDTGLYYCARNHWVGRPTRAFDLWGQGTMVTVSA VL: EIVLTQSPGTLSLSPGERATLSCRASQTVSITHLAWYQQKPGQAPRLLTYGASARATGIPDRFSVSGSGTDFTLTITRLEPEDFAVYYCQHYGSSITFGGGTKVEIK	OD 450 nm	0.396
G52 (antibody, V domains shown, Tested as a mAb; also called FAP-G52; FAP-G52-Bio (biotin-conjugated form)) VH: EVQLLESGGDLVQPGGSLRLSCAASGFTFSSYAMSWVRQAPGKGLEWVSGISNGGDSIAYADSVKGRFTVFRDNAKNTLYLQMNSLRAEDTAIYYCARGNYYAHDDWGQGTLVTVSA VL: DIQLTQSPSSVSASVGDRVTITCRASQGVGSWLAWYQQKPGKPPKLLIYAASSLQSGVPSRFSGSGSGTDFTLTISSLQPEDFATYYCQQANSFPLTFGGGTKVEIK	OD 450 nm	0.466
G14 (antibody, V domains shown, Full human antibody from a Fab phage library; Tested as a mAb (detected with anti-human IgG, captured on Protein A); also called FAP-G14; FAP-G14-Bio (biotin-conjugated form)) VH: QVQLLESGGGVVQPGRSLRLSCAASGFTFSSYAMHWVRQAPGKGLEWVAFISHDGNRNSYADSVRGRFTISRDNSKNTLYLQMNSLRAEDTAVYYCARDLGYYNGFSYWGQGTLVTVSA VL: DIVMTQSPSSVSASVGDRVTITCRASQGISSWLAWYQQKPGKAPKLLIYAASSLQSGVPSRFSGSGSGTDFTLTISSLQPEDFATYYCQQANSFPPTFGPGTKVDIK	OD 450 nm	0.658
I37 (antibody, V domains shown, Tested as a mAb; also called FAP-I37) VH: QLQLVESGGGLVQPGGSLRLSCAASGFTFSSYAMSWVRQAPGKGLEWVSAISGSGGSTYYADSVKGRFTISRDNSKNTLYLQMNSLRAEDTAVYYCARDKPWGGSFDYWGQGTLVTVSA VL: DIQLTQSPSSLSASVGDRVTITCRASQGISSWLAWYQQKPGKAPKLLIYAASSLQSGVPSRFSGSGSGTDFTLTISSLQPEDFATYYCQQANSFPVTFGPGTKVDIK	OD 450 nm	0.703

The record that follows has no OD 450 nm shown yet.
[Q] Data request, read-out OD 450 nm, for J40 (antibody, V domains shown, Tested as a mAb; also called FAP-J40; FAP-J40-Bio (biotin-conjugated form)) VH: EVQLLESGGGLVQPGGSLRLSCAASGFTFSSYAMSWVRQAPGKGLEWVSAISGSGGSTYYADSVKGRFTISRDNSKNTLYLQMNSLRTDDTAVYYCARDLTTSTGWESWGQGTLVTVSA VL: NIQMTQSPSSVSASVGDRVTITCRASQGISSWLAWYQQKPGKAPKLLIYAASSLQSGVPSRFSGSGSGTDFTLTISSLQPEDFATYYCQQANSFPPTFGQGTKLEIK
[A] 0.527
